- Tested on: Mycobacterium tuberculosis
- assay_method_text: Antimycobacterial activity against isoniazid, rifampin, ethambutol, kanamycin and rifabutin-resistant Mycobacterium tuberculosis after 14 days
- Format: functional
- condition_notes: 336 h
In this section we review reported MIC99 values for a set of compounds.
The figure you give is taken to be in µM; do not add the unit.

[[record]]
query_smiles = "Cc1ccc2nc(C)c(C(=O)NCc3ccccc3)n2c1"
value_observed = 2.3

[[record]]
query_smiles = "Cc1ccn2c(C(=O)NCc3ncc(C(F)(F)F)cc3Cl)c(C)nc2c1"
value_observed = 13

[[record]]
query_smiles = "Cc1ccn2c(C(=O)NCc3ccc(Oc4ccc(F)cc4)cc3)c(C)nc2c1"
value_observed = 0.8


# next compound below
## Input Query the reported MIC99 for Mycobacterium tuberculosis; item: `O=[N+]([O-])c1cn2c(n1)OC[C@@H](OCc1ccc(OC(F)(F)F)cc1)C2`
## Output 0.5

Reference source: ChEMBL document CHEMBL2407022
